The measurements presented in this section are drawn from patent US6825200B1.

quantity name: melting point

C[C@H](NC(=O)[C@H](Cc1ccccn1)NC(=O)c1cc2cc(Cl)ccc2o1)C(=O)N1CCN(c2ccc(Cl)cc2)CC1 [Example 22]; 152 to 155 °C

Give a short answer stating reported melting point for COC[C@@H]1CN(c2ccccc2)CCN1C(=O)CNC(=O)[C@H](Cc1ccccn1)NC(=O)c1cc2cc(Cl)ccc2o1 [Example 25] .
95 to 100 °C

Give a short answer stating reported melting point for O=C(N[C@@H](Cc1ccccn1)C(=O)NCC(=O)N1CCN(c2cccs2)CC1)c1cc2cc(Cl)ccc2o1 [Example 18] .
75 to 85 °C

Give a short answer stating reported melting point for C[C@H](NC(=O)[C@H](Cc1ccccn1)NC(=O)/C=C/c1ccc(Cl)cc1)C(=O)N1CCN(c2ccc(Cl)cc2)CC1 [Example 23] .
179 to 181 °C

Give a short answer stating reported melting point for O=C(N[C@@H](Cc1ccccn1)C(=O)NCC(=O)N1CCN(c2ccccc2)C[C@H]1CO)c1cc2cc(Cl)ccc2o1 [Example 26] .
115 to 120 °C
